B1: HESX1 (parent)
chain: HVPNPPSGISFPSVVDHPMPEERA

variants of: B1; experiment: protein stability index of a GFP-peptide fusion (GPS, HEK-293T) (PSI 1-6); higher = more stable; settings: c terminus: a fixed tail appended;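 also: lentivirally expressed fusions sorted by FACS into six bins by GFP to DsRed ratio, PSI derived from sequencing read proportions per bin multiplied by bin number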
Exercise: state measured protein stability index for each of the variants provided.
Lab note: jot the number down without any unit.

What protein stability index value was documented for this variant, HVPNMPSGISFPSVVDHPMPEERA [P5M] ?
2.95

Recorded protein stability index for HVPNPPSGISFPSVVDSPMPEERA [H17S] , please?
3.01

Fill blank: measured protein stability index of the variant HVPNPPSSISFPSVVDHPMPEERA [G8S] is ____.
3.03

// lookup protein stability index for HVPNPPSGISFPSVVPHPMPEERA [D16P]
2.37

Endpoint output: protein stability index of HVPNPPSGISFPSVVDHPMPDERA [E21D] . Value?
2.85

Please give the measured protein stability index for this variant: HVPNPPSGISFPSVWDHPMPEERA [V15W]
2.17

Origin of measurements: the supplement of paper PMC10567573
